- assayed_target: Serine/threonine-protein kinase mTOR (Homo sapiens)
- particulars: at 10 µM
Assignment: determine reported residual activity for the given compounds.
Please give a number only; it is taken to be in %.

Input: Requested field: residual activity. Item: O=C1C(Cl)=C(N2C(=O)CCC2=O)C(=O)c2ccccc21
Output: 78

Input: Ok, now Cn1c2ccccc2c2c3c(c4c5ccccc5n(CCC#N)c4c21)CNC3=O
Output: 99

Input: Ok, now O=C(c1ccccc1)c1ccc(N2CCOCC2)cc1O
Output: 54

Input: Ok, now CC(C)(C)n1nc(Cc2cccc3ccccc23)c2c(N)ncnc21
Output: 87

Input: Ok, now O=C1NC(=O)C(c2cn(CCCO)c3ncccc23)=C1c1cnccn1
Output: 84

Input: Ok, now Nc1nccc(-c2c(-c3ccc(F)cc3)ncn2C2CCNCC2)n1
Output: 78

Input: Ok, now COc1ccc(-c2cnc3c(-c4ccsc4)cnn3c2)cc1
Output: 90

Input: Ok, now CCOc1nc(NC(=O)Cc2cc(OC)ccc2OC)cc(N)c1C#N
Output: 80

---

- assayed_target: Tyrosine-protein kinase ITK/TSK (Homo sapiens) (UniProt Q08881)
- Sequence (Q08881 whole entry): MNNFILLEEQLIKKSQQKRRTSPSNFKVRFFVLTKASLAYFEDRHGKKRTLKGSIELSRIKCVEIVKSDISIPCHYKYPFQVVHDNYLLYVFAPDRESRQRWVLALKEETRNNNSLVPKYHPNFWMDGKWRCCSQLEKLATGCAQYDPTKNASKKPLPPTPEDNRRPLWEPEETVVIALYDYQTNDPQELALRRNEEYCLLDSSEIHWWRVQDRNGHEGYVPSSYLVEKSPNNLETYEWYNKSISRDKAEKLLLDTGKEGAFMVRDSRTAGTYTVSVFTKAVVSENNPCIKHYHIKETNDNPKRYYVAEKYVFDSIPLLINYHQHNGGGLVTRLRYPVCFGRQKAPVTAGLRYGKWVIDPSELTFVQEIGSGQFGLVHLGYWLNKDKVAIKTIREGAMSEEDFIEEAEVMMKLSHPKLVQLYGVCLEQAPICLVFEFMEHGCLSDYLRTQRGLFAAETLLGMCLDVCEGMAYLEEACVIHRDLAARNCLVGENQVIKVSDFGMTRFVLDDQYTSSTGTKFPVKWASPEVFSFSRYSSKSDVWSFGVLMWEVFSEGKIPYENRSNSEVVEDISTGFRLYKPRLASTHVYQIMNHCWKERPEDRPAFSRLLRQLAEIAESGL
- particulars: at 1 µM
test_readout: residual activity (%)
Please give a number only; it is taken to be in %.

Input: Tyrosine-protein kinase ITK/TSK (Homo sapiens) (UniProt Q08881) / residual activity / O=C(CCCc1ccc(-c2ccccc2F)cc1)Nc1ccc(O)cc1 : value?
Output: 90

Input: Ok, now Nc1ncnc2[nH]nc(Nc3ccc(F)cc3)c12
Output: 103

Input: Ok, now COc1ccc2c(c1)c(C1=C(c3c[nH]c4ccccc34)C(=O)NC1=O)cn2CCCN(C)C
Output: 101

Input: Ok, now O=C1NC(=O)C(c2c[nH]c3ccccc23)=C1c1c[nH]c2ccccc12
Output: 100

Input: Ok, now CCCC(=O)Oc1ccc2[nH]c(C(=O)c3cc4ccccc4[nH]3)cc2c1
Output: 105

Input: Ok, now CC(C)c1nn(-c2c(Cl)cccc2Cl)c2nc(Cc3ccc(OCCO)cc3)[nH]c(=O)c12
Output: 98

Input: Ok, now O=C(c1cc2cc(O)ccc2[nH]1)c1cc2cc(O)ccc2[nH]1
Output: 64

Input: Ok, now Cn1sc(=O)n(Cc2ccccc2)c1=O
Output: 97

Input: Ok, now O=C1NC(=O)c2c1c1c3ccccc3[nH]c1n1cncc21
Output: 85

---

- assayed_target: Tyrosine-protein kinase JAK3 (Homo sapiens)
- particulars: at 10 µM
test_readout: residual activity

Input: Requested field: residual activity. Item: O=C1Nc2ccc(Cl)cc2/C1=C/c1cc(Cl)c(O)c(Cl)c1
Output: 28%

Input: Ok, now COc1cc2nccc(Oc3ccc(NC(=O)Nc4cc(C)on4)c(Cl)c3)c2cc1OC
Output: 48%

Input: Ok, now COc1ccc(-c2cnc3c(-c4ccsc4)cnn3c2)cc1
Output: 92%

Input: Ok, now CC(C)(C)c1nc2c3ccc(F)cc3c3c(=O)[nH]ccc3c2[nH]1
Output: 1%

Input: Ok, now CC(C)[C@H](CO)Nc1nc(Nc2cc(N)cc(Cl)c2)c2ncn(C(C)C)c2n1
Output: 87%

Input: Ok, now O=C(O)/C=C/c1cc(Br)c(Br)c(Br)c1Br
Output: 34%

---

Assignment: determine reported residual activity for the given compounds.
- assayed_target: Serine/threonine-protein kinase Nek3 (Homo sapiens)
- particulars: at 10 µM
- Description: Millipore: Percentage of residual kinase activity of NEK3 at 10uM relative to control. Control inhibitor: Phosphoric acid* at 0.3uM. Buffer: 8 mM MOPS pH 7.0, 0.2 mM EDTA
Please give a number only; it is taken to be in %.

Input: Requested field: residual activity. Item: CN([C@@H](Cc1ccc(OS(=O)(=O)c2cccc3cnccc23)cc1)C(=O)N1CCN(c2ccccc2)CC1)S(=O)(=O)c1cccc2cnccc12
Output: 99

Input: Ok, now O=C(c1cc2cc(O)ccc2[nH]1)c1cc2cc(O)ccc2[nH]1
Output: 72

Input: Ok, now O=C1NC(=O)C(c2cn(CCCn3ccnc3)c3ccccc23)=C1Nc1ccccc1
Output: 104

Input: Ok, now O=C1Cc2c([nH]c3ccc(Br)cc23)-c2ccccc2N1
Output: 72

Input: Ok, now CN(C)S(=O)(=O)c1ccc2c(c1)/C(=C/c1cc3c([nH]1)CCCC3)C(=O)N2
Output: 94

Input: Ok, now Nc1nc(Nc2ccc(S(N)(=O)=O)cc2)nn1C(=O)c1c(F)cccc1F
Output: 71

Input: Ok, now O=C(NC(NC(=S)Nc1ccc(F)c([N+](=O)[O-])c1)C(Cl)(Cl)Cl)C(c1ccccc1)c1ccccc1 (centres undefined)
Output: 89

Input: Ok, now O=C(O)/C=C/c1cc(Br)c(Br)c(Br)c1Br
Output: 108

Input: Ok, now Cc1cc(C)c(/C=C2\C(=O)Nc3ccccc32)[nH]1
Output: 106

Input: Ok, now O=c1cc(N2CCOCC2)oc2c1ccc1ccccc12
Output: 79

Input: Ok, now Oc1cccc(-c2nc(N3CCOCC3)c3oc4ncccc4c3n2)c1
Output: 69

Input: Ok, now CC(C)(C)n1nc(Cc2cccc3ccccc23)c2c(N)ncnc21
Output: 105

Input: Ok, now COc1cc2c(cc1OC)-c1n[nH]c(Nc3cccc(F)c3)c1C2
Output: 100

Input: Ok, now CCCC(=O)Oc1ccc2[nH]c(C(=O)c3cc4ccccc4[nH]3)cc2c1
Output: 79

---

- assayed_target: Tyrosine-protein kinase Fgr (Homo sapiens)
- particulars: at 10 µM
test_readout: residual activity (%)
Please give a number only; it is taken to be in %.

Input: Tyrosine-protein kinase Fgr (Homo sapiens) / residual activity / CCCCc1c(-c2ccc(OC)cc2)[nH]c2nccnc12 : value?
Output: 78

Input: Ok, now O=C(c1cc2cc(O)ccc2[nH]1)c1cc2cc(O)ccc2[nH]1
Output: 2

Input: Ok, now Oc1cccc(-c2nc(N3CCOCC3)c3oc4ncccc4c3n2)c1
Output: 97

Input: Ok, now Nc1nccc(-c2c(-c3ccc(F)cc3)ncn2C2CCNCC2)n1
Output: 25

Input: Ok, now COc1cc2nccc(Oc3ccc(NC(=O)Nc4cc(C)on4)c(Cl)c3)c2cc1OC
Output: 4

Input: Ok, now Cn1c2ccccc2c2c3c(c4c5ccccc5n(CCC#N)c4c21)CNC3=O
Output: 47

Input: Ok, now N#C/C(=C1/Nc2ccccc2S1)c1ccnc(NCCc2cccnc2)n1
Output: 44

---

- assayed_target: Mitogen-activated protein kinase kinase kinase 7 (Homo sapiens)
- Sequence (whole entry): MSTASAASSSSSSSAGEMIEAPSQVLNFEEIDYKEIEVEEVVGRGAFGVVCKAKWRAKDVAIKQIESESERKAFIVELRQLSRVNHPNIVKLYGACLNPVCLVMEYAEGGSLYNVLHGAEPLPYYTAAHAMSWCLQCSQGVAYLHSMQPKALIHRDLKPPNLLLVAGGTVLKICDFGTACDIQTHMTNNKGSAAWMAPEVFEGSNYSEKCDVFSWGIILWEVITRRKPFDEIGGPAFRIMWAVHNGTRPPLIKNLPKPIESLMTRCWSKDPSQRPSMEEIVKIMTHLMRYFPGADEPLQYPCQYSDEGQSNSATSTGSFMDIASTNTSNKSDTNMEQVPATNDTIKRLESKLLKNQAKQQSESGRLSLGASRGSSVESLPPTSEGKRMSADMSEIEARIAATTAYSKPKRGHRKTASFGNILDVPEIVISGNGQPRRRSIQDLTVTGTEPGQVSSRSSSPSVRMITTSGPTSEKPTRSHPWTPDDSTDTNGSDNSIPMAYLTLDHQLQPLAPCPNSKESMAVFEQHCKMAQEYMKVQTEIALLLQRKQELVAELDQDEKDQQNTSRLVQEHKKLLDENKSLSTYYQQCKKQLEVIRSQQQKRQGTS
- particulars: at 10 µM
Assignment: determine reported residual activity for the given compounds.

Input: Requested field: residual activity. Item: O=C(CCCc1ccc(-c2ccccc2F)cc1)Nc1ccc(O)cc1
Output: 92%

Input: Ok, now CN([C@@H](Cc1ccc(OS(=O)(=O)c2cccc3cnccc23)cc1)C(=O)N1CCN(c2ccccc2)CC1)S(=O)(=O)c1cccc2cnccc12
Output: 98%

Input: Ok, now O=c1cc(N2CCOCC2)oc2c1ccc1ccccc12
Output: 90%

Input: Ok, now O=C1Cc2c([nH]c3ccc(Br)cc23)-c2ccccc2N1
Output: 68%

---

- assayed_target: Protein-tyrosine kinase 6 (Homo sapiens) (UniProt Q13882)
- Sequence (Q13882 whole entry, looked up): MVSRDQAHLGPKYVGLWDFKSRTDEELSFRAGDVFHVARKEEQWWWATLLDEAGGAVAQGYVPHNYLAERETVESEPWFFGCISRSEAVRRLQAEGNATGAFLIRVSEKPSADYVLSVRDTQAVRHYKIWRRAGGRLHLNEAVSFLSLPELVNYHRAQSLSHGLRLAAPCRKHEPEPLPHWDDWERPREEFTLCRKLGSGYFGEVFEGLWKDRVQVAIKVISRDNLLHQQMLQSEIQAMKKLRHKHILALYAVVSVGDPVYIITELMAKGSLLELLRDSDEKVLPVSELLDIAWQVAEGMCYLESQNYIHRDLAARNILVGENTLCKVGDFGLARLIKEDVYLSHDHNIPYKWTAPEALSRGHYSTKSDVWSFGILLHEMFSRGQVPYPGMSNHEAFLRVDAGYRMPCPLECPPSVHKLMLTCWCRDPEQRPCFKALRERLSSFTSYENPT
- particulars: at 1 µM
Assignment: determine reported residual activity for the given molecules.
Please give a number only; it is taken to be in %.

Input: Requested field: residual activity. Item: O=c1c(-c2ccc(F)cc2)c(-c2ccncc2)[nH]n1-c1ccc(Cl)cc1
Output: 59

Input: Ok, now Nc1ncnc2c1cnn2-c1ccccc1
Output: 98

Input: Ok, now Nc1nc(Nc2ccc(S(N)(=O)=O)cc2)nn1C(=O)c1c(F)cccc1F
Output: 106

Input: Ok, now CCOc1nc(NC(=O)Cc2cc(OC)ccc2OC)cc(N)c1C#N
Output: 60

Input: Ok, now CCCC(=O)Oc1ccc2[nH]c(C(=O)c3cc4ccccc4[nH]3)cc2c1
Output: 101

Input: Ok, now O=C1NC(=O)c2c1c1c3ccccc3[nH]c1n1cncc21
Output: 81

Input: Ok, now O=C(O)/C=C/c1cc(Br)c(Br)c(Br)c1Br
Output: 99

Input: Ok, now N#C/C(=C1/Nc2ccccc2S1)c1ccnc(NCCc2cccnc2)n1
Output: 60

Each recorded value in this set is attributed to ChEMBL document CHEMBL2218924.
